Target: UniProt:P0DTD1
Test: biochemical
pIC50: −log10 of the molar value.

molecule: C[n+]1c2cc(N)ccc2cc2ccc(N)cc21 [EUFLAVINE]
pIC50: 5.30

molecule: CC(C)c1cc(CNc2nc(Nc3cc(C4CC4)[nH]n3)cc(N3CCN(C)CC3)n2)on1 [XL-228]
pIC50: 5.83

molecule: Oc1cc(CNC(=S)/C=C/c2cc(O)c(O)c(Br)c2)cc(O)c1O
pIC50: 6.32

molecule: C[C@@](Cc1ccc(O)c(O)c1)(NN)C(=O)O [CARBIDOPA ANHYDROUS]
pIC50: 5.45

molecule: O=C1C=Cc2cc(Br)ccc2C1=O
pIC50: 6.80

* * *

Measured IC50 accompanies every entry in the list below.
Target: Replicase polyprotein 1ab (Middle East respiratory syndrome-related coronavirus (isolate UnitedKingdom/H123990006/2012) (Betacoronavirus England 1) (Humancoronavirus EMC), UniProt K9N7C7)
Sequence (K9N7C7 3248-3553 limits assumed): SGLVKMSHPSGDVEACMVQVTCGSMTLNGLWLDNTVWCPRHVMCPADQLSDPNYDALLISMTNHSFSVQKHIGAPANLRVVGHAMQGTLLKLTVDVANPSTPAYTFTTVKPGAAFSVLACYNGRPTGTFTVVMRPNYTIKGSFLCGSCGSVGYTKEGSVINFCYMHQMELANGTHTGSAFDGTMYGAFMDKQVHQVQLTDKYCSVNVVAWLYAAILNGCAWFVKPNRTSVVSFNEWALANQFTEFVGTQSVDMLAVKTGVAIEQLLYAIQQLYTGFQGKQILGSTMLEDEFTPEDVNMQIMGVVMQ
Experiment: biochemical
Assay type: functional
Where a name gives a salt, the structure may show the parent alone.
quantity-kind: IC50

compound: Sc1nc2ccccc2s1
measured-result: > 10 µM

compound: CC(C)c1cc(CNc2nc(Nc3cc(C4CC4)[nH]n3)cc(N3CCN(C)CC3)n2)on1
measured-result: > 10 µM

compound: O=c1cc(-c2ccccc2)oc2cc(O)c(O)c(O)c12
measured-result: > 10 µM

compound: CCOC(=O)Cc1ccc(-c2ccccc2)cc1
measured-result: > 10 µM

compound: C/C=C1\C(OC2OC(CO)C(O)C(O)C2O)OC=C(C(=O)OC)C1CC(=O)OCCc1ccc(O)c(O)c1 (configuration not stated)
measured-result: > 10 µM

compound: O=C1C(Cl)=C(N2CCOCC2)C(=O)N1c1ccc(Cl)c(Cl)c1
measured-result: > 10 µM

compound: Oc1c(I)cc(I)c(O)c1I
measured-result: > 10 µM

compound: CC(C)N(CCC(=O)c1ccc2ccccc2c1)Cc1ccccc1
measured-result: 8.1 µM

compound: Oc1cc(CNC(=S)/C=C/c2cc(O)c(O)c(Br)c2)cc(O)c1O
measured-result: > 10 µM

compound: CC(C)Nc1cccnc1N1CCN(C(=O)c2cc3cc(NS(C)(=O)=O)ccc3[nH]2)CC1 [DELAVIRDINE MESYLATE]
measured-result: > 10 µM

compound: N#CSc1cc(SC#N)c(N)nc1N
measured-result: 2.3 µM

compound: CNC(=O)ON(C(C)=O)C(=O)NC [CARACEMIDE]
measured-result: > 10 µM

compound: O=C(O)c1cc(O)c2c(c1)[C@H]([C@H]1c3cc(C(=O)O)cc(O)c3C(=O)c3c(O[C@@H]4O[C@H](CO)[C@@H](O)[C@H](O)[C@H]4O)cccc31)c1cccc(O[C@@H]3O[C@H](CO)[C@@H](O)[C@H](O)[C@H]3O)c1C2=O [Sennoside A]
measured-result: > 10 µM

compound: O=C1c2c(O)cc(O)cc2O[C@H](c2cc(O)c(O)c(O)c2)[C@H]1O
measured-result: > 10 µM

compound: Oc1ccc2ccccc2c1SSc1c(O)ccc2ccccc12
measured-result: > 10 µM

compound: Cc1ccc(S(=O)(=O)/C=C/C#N)cc1
measured-result: > 10 µM

compound: O=c1c2ccccc2[se]n1-c1ccccc1
measured-result: > 10 µM

compound: COc1cccc(C(=O)CCN[C@@H](C)[C@H](O)c2ccccc2)c1
measured-result: > 10 µM

compound: Oc1cc2c(cc1O)[C@@H]1c3ccc(O)c(O)c3OC[C@]1(O)C2
measured-result: > 10 µM

compound: S=C(S)N1CCCC1
measured-result: > 10 µM

compound: Cc1ccccc1N(C)C(=O)c1ccc([S+]([O-])c2nccs2)c([N+](=O)[O-])c1 (configuration not stated)
measured-result: > 10 µM

compound: COc1cc(C(=S)N2CCOCC2)ccc1O [VANITIOLIDE]
measured-result: > 10 µM
